Where these numbers come from: patent US11155560B2

Biological target: CDK9/cyclin T1 (Homo sapiens)
Assay: CDK9/cyclin T1 kinase inhibition, LANCE assay
Assay type: biochemical
Details: reaction time 60 minutes, 10 μM ATP, 10-dose IC50, compounds 35-126 (127-208 listed, method not stated), read-out: CDK9/cyclin T1 Potency Grade
pIC50: −log10 of the molar value.
pIC50 reference

1) N[C@H]1CC[C@H](Nc2cc(C3CCC(F)(F)CC3)nc3ccnn23)C1 [Compound 125]    6.30 to 9.00
2) CC(C)c1cc(N[C@@H]2CC[C@@H](NC(=O)OCc3ccccc3)C2)n2ncc(Cl)c2n1 [Compound 158]    6.30 to 9.00
3) CC(C)OC(=O)N[C@@H]1CC[C@@H](Nc2cc(C(C)C)nc3c(Cl)cnn23)C1 [Compound 68]    6.00 to 6.30

Would you kindly share the measured pIC50 for N[C@H]1CC[C@H](Nc2cc(-c3cccc(Cl)c3)nc3ccnn23)C1 [Compound 75] ?
6.30 to 9.00

* * *

Item-by-item account of IC50
Biological target: CDK9/cyclin T1 (Homo sapiens, UniProt P50750)
Sequence (P50750 whole entry): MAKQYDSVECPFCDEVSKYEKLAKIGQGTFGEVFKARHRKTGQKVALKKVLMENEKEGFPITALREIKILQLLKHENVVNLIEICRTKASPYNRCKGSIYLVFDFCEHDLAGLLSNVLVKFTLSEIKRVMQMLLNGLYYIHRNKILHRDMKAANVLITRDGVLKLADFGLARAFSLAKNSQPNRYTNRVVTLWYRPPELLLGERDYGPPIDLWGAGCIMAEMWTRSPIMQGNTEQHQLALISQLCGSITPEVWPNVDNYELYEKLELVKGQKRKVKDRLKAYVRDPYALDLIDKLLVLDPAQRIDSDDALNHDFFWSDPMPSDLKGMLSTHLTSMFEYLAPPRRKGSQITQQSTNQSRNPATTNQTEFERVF
Sequence (O60563 whole entry partner): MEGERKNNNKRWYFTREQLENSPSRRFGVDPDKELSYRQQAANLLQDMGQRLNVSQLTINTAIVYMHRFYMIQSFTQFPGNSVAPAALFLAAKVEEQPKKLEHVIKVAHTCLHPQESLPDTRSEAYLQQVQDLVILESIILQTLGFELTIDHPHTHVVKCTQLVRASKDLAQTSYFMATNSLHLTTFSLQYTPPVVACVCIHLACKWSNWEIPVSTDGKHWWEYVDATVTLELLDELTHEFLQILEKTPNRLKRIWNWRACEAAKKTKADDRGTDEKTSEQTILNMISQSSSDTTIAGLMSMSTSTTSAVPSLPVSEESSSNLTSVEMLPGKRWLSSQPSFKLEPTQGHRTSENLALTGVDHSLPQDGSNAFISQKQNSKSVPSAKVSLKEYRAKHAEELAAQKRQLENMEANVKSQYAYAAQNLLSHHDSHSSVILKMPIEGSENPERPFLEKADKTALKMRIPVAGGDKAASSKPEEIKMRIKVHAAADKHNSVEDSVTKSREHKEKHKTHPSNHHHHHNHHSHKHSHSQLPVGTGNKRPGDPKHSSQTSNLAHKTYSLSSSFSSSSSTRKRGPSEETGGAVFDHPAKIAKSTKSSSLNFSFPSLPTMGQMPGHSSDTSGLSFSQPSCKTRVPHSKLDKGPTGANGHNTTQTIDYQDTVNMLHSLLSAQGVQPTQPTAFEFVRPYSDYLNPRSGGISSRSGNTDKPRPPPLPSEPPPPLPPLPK
Test: CDK9/cyclin T1 kinase inhibition, LANCE assay
Assay type: biochemical
Conditions: reaction time 60 minutes, 10 μM ATP, 10-dose IC50, compounds 35-126 (127-208 listed, method not stated), read-out: CDK9/cyclin T1 Potency Grade

Please review the following examples before continuing.
1. COCCNc1cc(N[C@H]2CC[C@H](N)C2)n2nccc2n1 [Compound 179]    501 to 1000 nM
2. CCc1cc(N[C@H]2CC[C@H](N)C2)n2nccc2n1 [Compound 138]    1 to 500 nM
3. N[C@H]1CC[C@H](Nc2cc(C3=CCCOC3)nc3ccnn23)C1    1 to 500 nM
4. CC(C)c1cccc(-c2cc(N[C@H]3CC[C@H](N)C3)n3nccc3n2)c1    1 to 500 nM
5. CC1(C)CC1c1cc(N[C@H]2CC[C@H](N)C2)n2nccc2n1 (stereo partly drawn) [Compound 117]    1 to 500 nM

Entry under review: N[C@H]1CC[C@H](Nc2cc(C3CCCCC3)nc3ccnn23)C1 [Compound 115] . Reported IC50?
1 to 500 nM

Similarly, `N[C@H]1CC[C@H](Nc2cc(-c3ccc(F)cc3)nc3ccnn23)C1` ?
1 to 500 nM

And the next one, `N[C@H]1CC[C@H](Nc2cc(-c3ccc4ccccc4c3)nc3ccnn23)C1` ?
501 to 1000 nM

Now consider N[C@H]1CC[C@H](Nc2cc(C3=CCCCC3)nc3ccnn23)C1 [Compound 109] .
1 to 500 nM

Now try CN/C(=N/C#N)N[C@@H]1CC[C@@H](Nc2cc(C(C)C)nc3ccnn23)C1 [Compound 63] .
1 to 500 nM

And for CN(Cc1ccccc1)c1cc(N[C@H]2CC[C@H](N)C2)n2nccc2n1 [Compound 188] ?
1 to 500 nM

Would you kindly repeat that for N[C@H]1CC[C@H](Nc2cc(C3CCCCC3)nc3ccnn23)C1 [Compound 206] ?
1 to 500 nM

How about N[C@H]1CC[C@H](Nc2cc(-c3ccc(C4CC4)cc3)nc3ccnn23)C1 [Compound 114] ?
1 to 500 nM

Also, N[C@H]1CC[C@H](Nc2cc(Nc3ccc4ccccc4c3)nc3ccnn23)C1 [Compound 71] please.
1 to 500 nM

Here is the next compound: O=C(N[C@H]1CC[C@H](Nc2cc(C3CC3)nc3ccnn23)C1)OCc1ccccc1 [Compound 175]
> 1000 nM

Repeat for the following compound: CC(C)c1cc(N[C@@H]2CC[C@@H](NC(=O)OCc3ccccc3)C2)n2nccc2n1 [Compound 50]
1 to 500 nM

Again, but for CC(C)c1ccc(-c2cc(N[C@H]3CC[C@H](N)C3)n3nccc3n2)cc1 [Compound 108]
1 to 500 nM

How about CCOc1cc(N[C@H]2CC[C@H](N)C2)n2nccc2n1 [Compound 91] ?
501 to 1000 nM
